Measured TT on Prothrombin (Rattus norvegicus) follows.
Report only the number, with the unit s understood.

Req: Reported TT, compound N=C(N)NCCCC(NC(=O)[C@@H]1CC[C@H]2CN(C(=O)[C@@H](O)Cc3ccccc3)CC(=O)N21)C(=O)c1nccs1 (stereo not given in full) : ____
Resp: 679

---

compounds and their reported APTT
Molecular target: Prothrombin (Rattus norvegicus) (UniProt P18292)
Report only the number, with the unit s understood.

Req: Reported APTT, compound N=C(N)NCCCC(NC(=O)[C@@H]1CC[C@H]2CN(C(=O)Cc3ccccc3)CC(=O)N21)C(=O)c1nccs1 (stereo not given in full) : ____
Resp: 79.2

---

molecules and their reported TT
Target: Prothrombin (Rattus norvegicus) (UniProt P18292)
Report only the number, with the unit s understood.

molecule="N=C(N)NCCCC(NC(=O)[C@@H]1CC[C@H]2CN(C(=O)Cc3ccccc3)CC(=O)N21)C(=O)c1nccs1 (some centres undefined)" reported_result=387
molecule="N=C(N)NCCCC(NC(=O)[C@@H]1CC[C@H]2CN(C(=O)CCCc3ccccc3)CC(=O)N21)C(=O)c1nccs1 (some centres undefined)" reported_result=494

Alright, here's another molecule for you.
Req: Reported TT, molecule N=C(N)NCCCC(NC(=O)[C@@H]1CC[C@H]2CN(C(=O)COc3ccccc3)CC(=O)N21)C(=O)c1nccs1 (some centres undefined) : ____
Resp: 248

---

Measured APTT on Prothrombin (Rattus norvegicus) (UniProt P18292) follows.
Report only the number, with the unit s understood.

Req: What APTT appears in the records for this molecule with Prothrombin (Rattus norvegicus) (UniProt P18292)? N=C(N)NCCCC(NC(=O)[C@@H]1CC[C@H]2CN(C(=O)CCOc3ccccc3)CC(=O)N21)C(=O)c1nccs1 (some centres undefined)
Resp: 45.2

Req: Please give the result for N=C(N)NCCCC(NC(=O)[C@@H]1CC[C@H]2CN(C(=O)COc3ccccc3)CC(=O)N21)C(=O)c1nccs1 (some centres undefined) too.
Resp: 31.5

Req: Please give the result for N=C(N)NCCCC(NC(=O)[C@@H]1CC[C@H]2CN(C(=O)c3ccccc3)CC(=O)N21)C(=O)c1nccs1 (some centres undefined) too.
Resp: 25.5

Req: Please give the result for Cc1ccc(CCC(=O)N2CC(=O)N3[C@@H](CC[C@H]3C(=O)NC(CCCN=C(N)N)C(=O)c3nccs3)C2)cc1 (some centres undefined) too.
Resp: 88
